# assayMethodText: growth inhibition, single agents and combos, HD-MB03, cell-based, BGB or cisplatin IC20 combos, synergistic combos for chromothripsis tumors (AID 1671455);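 note: 0% = vehicle DMSO and 100% = high DMSO as cytotoxic control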
# conditionDescription: HD-MB03 medulloblastoma cells, at 0.5 µM, stronger effect = higher value
measurementKind: inhibition (%)
Report the value in % with no unit label.

// Cc1c(Br)cc(NCC(=O)N/N=C/c2cc([N+](=O)[O-])ccc2O)cc1Br : inhibition value = -7.25

Measured inhibition of Cc1cn(C2C=CC(CO)O2)c(=O)[nH]c1=O (stereo unspecified) : -18.8

The molecule Cc1cc(C)c(Nc2ccnc(Nc3ccc(C#N)cc3)n2)c(C)c1 showed inhibition equal to -17.9

inhibition reported for this molecule CC1OC(n2cc(F)c(=O)[nH]c2=O)C(O)C1O (stereo unspecified) : -15.3

For record Cc1ccc(NC(=O)CCCCCC(=O)Nc2ccccc2N)cc1 the listed inhibition is -7.72

Just so you know, measured inhibition for O=C(O)c1cc2cccc([N+](=O)[O-])c2[nH]1 came out at -5.12

Briefly, inhibition measured for NC(=O)c1cccc2[nH]c(-c3ccc(C4CCCN4)cc3F)nc12 (stereo unspecified) : 7.06

The value of inhibition measured for the molecule NC(=S)NN=Cc1ncccc1N turned out to be -11.3

get_value(item= Cn1cc(-c2cnn3c(N)c(Br)c([C@H]4CCCNC4)nc23)cn1 , readout=inhibition) returns 6.2

Record summary for COc1cccc2c1C(=O)c1c(O)c3c(c(O)c1C2=O)CC(O)(C(=O)CO)CC3OC1CC(N)C(OC2CCCCO2)C(C)O1 (stereo unspecified) : reported inhibition = 70.5

For reference, reported inhibition for O=C(CCSc1nc2ccccc2c(=O)[nH]1)NC1CCC(c2nnc(-c3ccccc3)o2)CC1 (stereo unspecified) stands at 5.94

====

# assayMethodText: growth inhibition, single agents and combos, HTB85, cell-based, BGB or cisplatin IC20 combos, synergistic combos for chromothripsis tumors (AID 1671453);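 note: cells exposed for 96 hours before readout; 0% = vehicle DMSO and 100% = high DMSO killing control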
# conditionDescription: HTB85 osteosarcoma cells, drug combinations, measured here: with BGB IC20, at 5 µM, stronger effect = higher value
What inhibition was measured for each of the following?
Dear colleague, please return just the value in %, with no unit written.

Entry CC(Oc1cc(-c2cnn(C3CCNCC3)c2)cnc1N)c1c(Cl)ccc(F)c1Cl (stereo not given) ; inhibition = 44.7

// inhibition lookup, compound = C=C(C)C1CCC2(C(=O)O)CCC3(C)C(CCC4C5(C)CCC(O)C(C)(C)C5CCC43C)C12 (stereo not given) , result: -3.73

Reported inhibition of CC(=O)C1(O)Cc2c(O)c3c(c(O)c2C(OC2CC(N)C(O)C(C)O2)C1)C(=O)c1ccccc1C3=O (stereo not given) : 99.7

Record CCC(Sc1nnc2c3ccccc3n(CC)c2n1)C(=O)Nc1ccccc1OC (stereo not given) , field inhibition: -8.08

Sample O=c1cc(-c2ccc(O)cc2)[nH]c(=S)[nH]1 ; inhibition observed: -6.6

Note to self: inhibition recorded for CC(C)(C#N)c1ccc(N2C(=O)OCc3cnc4ccc(-c5cnc6ccccc6c5)cc4c32)cc1 was 14.5

response.value for Cc1ccc([N+](=O)[O-])cc1S(=O)(=O)N(C)/N=C\c1cnc2ccc(Br)cn12 (field: inhibition) = 99.7

The value of inhibition measured for the compound O=c1[nH]c(=O)n(C2CC(O)C(CO)O2)cc1I (stereo not given) turned out to be -4.26

So for CC(C)c1ccc(-c2cc(=O)c3ccccc3o2)cc1 , the logged inhibition turned out to be 1.8

The reported value for O=C1N=c2ccccc2=C1c1c(O)[nH]c2ccccc12 in terms of inhibition is 49.4

====

# assayMethodText: viability loss with induced miR-34 in A549 – imaging, A549 dox-inducible miR-34, nuclei and caspase counts, primary screen (AID 1347080)
# conditionDescription: A549 miR-34 inducible, Hoechst nuclei count, 48 h; measured here: total cells with miR-34 induction; stronger effect = lower value
measurementKind: cell count
Give the figure by itself; no unit, no explanation.

Please fill in: cell count reported for [Li+] = 9680

Documented cell count of CC(C)C1C(=O)NC(CCCN=C(N)N)C(=O)NCC(=O)NC(CC(=O)O)C(=O)NC(Cc2ccccc2)C(=O)N1C (centres undefined) : 304

For CCOC(=O)c1c(C)nn(-c2ccc(N)cc2)c1C the compound record lists cell count as 8580

The compound listed as Cc1ccc(S(=O)(=O)C=CC#N)cc1 shows cell count equal to 7140

The recorded cell count for entry CC1(C)S[C@@H]2[C@H](NC(=O)[C@H](N)c3ccccc3)C(=O)N2[C@H]1C(=O)OC1OC(=O)c2ccccc21 (some centres undefined) equals 8670

What the record says about CC(c1cccc(O)c1)N(C)C (centres undefined) : cell count is 8630

# cell count of NC(=O)c1noc(C(CCCC2CCCCC2)CC(=O)NO)n1 (centres undefined) = 6790

Query CN(CC(=O)N(Cc1ccc(C2CCCCC2)cc1)c1ccc(C(=O)O)cc1)S(=O)(=O)c1c(F)c(F)c(F)c(F)c1F yields cell count of 3920

Lab note: COC1CC2CCC(C)[C@@](O)(O2)C(=O)C(=O)N2CCCCC2C(=O)OC(C(C)CC2CCC(O)C(OC)C2)CC(=O)C(C)C=C(C)C(O)C(OC)C(=O)C(C)CC(C)C=CC=CC=C1C (some centres undefined) gave cell count of 4070

====

Can you tell me period change for the items I'm about to list?
# assayMethodText: compounds altering circadian rhythm period length – cell-based, LOPAC library, luminescence reporter (AID 2774);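 note: values are relative to mean of DMSO wells on each plate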
# conditionDescription: circadian reporter cells, at 7 µM, actives lie on both sides
Active and inactive are the calls of the source. The rule behind the calls is not given here.

Form field period change, entry CN1CCc2ccccc2Cc2[nH]c3ccccc3c2CC1 : -0.08 h (inactive)

Record summary for CN1CCc2cc(O)c(O)cc2C(c2ccccc2)C1 (stereo not given) : reported period change = 0.07 h (inactive)

Measured period change, Nc1nc(Cl)nc2c1ncn2[C@@H]1O[C@H](COP(=O)(O)OP(=O)(O)OP(=O)(O)O)[C@H](O)C1O (stereo not given in full) : -0.055 h (inactive)

Looking up C[C@@H]1C(=O)NC2=Nc3cccc(Cl)c3CN21 , I see its period change listed as 0.025 h (inactive)

# period change (molecule: Nc1ncnc2c1ncn2[C@@H]1O[C@H](COP(=O)(O)OP(=O)(O)OP(=O)(O)OP(=O)(O)OC[C@@H]2O[C@H](n3cnc4c(N)ncnc43)C(O)[C@@H]2O)[C@H](O)C1O (stereo not given in full) ) is 0.05 h (inactive)

# period change of Cc1ccc2c(c1)C(N1CCN(C)CC1)=Nc1cccnc1N2 = 0.2 h (inactive)

Entry CCCCCCCCCC[Si](C)(C)CCC(=O)NC(Cc1ccc(C)cc1)c1ccccc1 (stereo not given) — recorded period change = 0.12 h (inactive)

The recorded period change for entry NC(CCCP(=O)(O)O)C(=O)O (stereo not given) equals 0.105 h (inactive)

Quick note, period change for CC(=O)N[C@@H](Cc1c[nH]c2ccccc12)C(=O)OCc1cc(C(F)(F)F)cc(C(F)(F)F)c1 landed at 0.005 h (inactive)

Just so you know, measured period change for CC(C)NC[C@@H](O)c1ccc(O)c(O)c1 came out at -0.08 h (inactive)

====

# assayMethodText: drug combination growth inhibition, ovarian cancer – cell-based, oncology-focused library, rucaparib conditional, profiling panel (AID 1508598)
# conditionDescription: patient-derived ovarian cancer cells, CellTiter-Glo viability, 144 h; at 0.00122 µM; OCI-P5x cells; with rucaparib 20 µM; stronger effect = lower value; 100% = cells with rucaparib alone
So I've got a bunch of compounds here, and I need their viability values.
Output spec: scalar in %, unitless text.

The compound CC(=O)[C@]1(O)Cc2c(O)c3c(c(O)c2[C@H](O[C@H]2C[C@H](N)[C@H](O)[C@H](C)O2)C1)C(=O)c1ccccc1C3=O showed viability equal to 107

Sure, the documented viability for C[C@]12C=CC(=O)C=C1CC[C@@H]1[C@H]2C(=O)C[C@@]2(C)[C@H]1CC[C@@]2(O)C(=O)CO is 95.9

Query C[C@]12CC[C@H]3c4ccc(O)cc4CC[C@H]3[C@@H]1CCC2=O yields viability of 101

The compound C[C@@]1(c2nc3c(C(N)=O)cccc3[nH]2)CCCN1 showed viability equal to 97.2

====

# assayMethodText: galactose survival enhancers in mitochondrial complex I cybrids – cell-based, galactose medium, ATP luminescence, primary screen (AID 1645843);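 note: positive z means more ATP and so rescue of galactose-driven cybrid death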
# conditionDescription: complex I mutant cybrid cells, 72 h, stronger effect = higher value
Response field class: string, computed from recorded z-score by ranges lower segment: < -0.5; middle segment: ≥ -0.5 and < 0.4; upper segment: ≥ 0.4

Given CCn1ncc(NC(=O)Cn2ccc(C(=O)OC)n2)n1 , name the class its z-score places it in.
middle segment

Hi there! Could you help me figure out the category for O=C(O)CCCCc1ccccc1 please?
upper segment

Where would CC(C)[C@@H]1NC(=O)[C@H]2CN(C(=O)c3ccccc3Cl)CCN2C1=O land among the classes by reported z-score?
upper segment

Kindly identify the class of Cc1nn(C)cc1-c1ccnc(N2CCCN(c3ccc(F)cc3)CC2)n1 .
upper segment

Entry O=C(c1ccccc1-c1nn[nH]n1)N1CCc2[nH]cnc2C1c1ccccn1 (configuration not stated) belongs to which category?
middle segment

Kindly identify the class of Cn1c(=O)c2[nH]c(-c3ccccc3)nc2n(C)c1=O .
upper segment

Category of O=C(CC1CCCCCC1)N1CCC(n2cc(C3CC3)nn2)CC1 :
middle segment

Sort into band: NCCCCCCCCCCN
middle segment

Assign a category based on measured z-score for COc1ccc(OC)c2c1c(C)cc(=O)n2C and give only the class name.
lower segment

Using the reported z-score, which band applies to O=c1cc(-c2ccccc2Cl)nc(-c2ccc(CN3CCC[C@@H](O)C3)cc2)[nH]1 ?
lower segment

Place this compound in its band: O=C(CCC1CC1)Nc1ccnn1C1CCCCC1
middle segment

Assign a category based on measured z-score for CN1CCCC1CCOC(C)(c1ccccc1)c1ccc(Cl)cc1 (configuration not stated) and give only the class name.
lower segment

Record CCNC(=O)c1cccnc1N1CCN(c2ccc(Cl)cc2)CC1 — which class?
middle segment

Assign a bin to NC[C@@H]1O[C@H](c2ccccc2)Cc2c1ccc(O)c2O
lower segment

Assign a bin to COc1ccc(C(=O)Nc2c(Cl)cncc2Cl)cc1OC1CCCC1
middle segment

Could you tell me which band CNc1cc(NS(=O)(=O)c2ccc(N)cc2)nc(NC)n1 belongs to?
upper segment

Returns: class label. Input: C=CCc1ccccc1OCC(O)CN[C@]1(C)CCC[C@H](C(C)(C)NC(=O)CBr)C1 (some centres not stated)
lower segment

Hello team, could you let me know which band the following compound falls into: Cc1ccc2c(c1)C(N1CCN(C)CC1)=Nc1cccnc1N2
middle segment

Given CN(CC1COc2ccccc2O1)C(=O)Nc1nncs1 (configuration not stated) , name the class its z-score places it in.
middle segment

Returns: class label. Input: O=C(Nc1cccnc1)C1CCN(C(=O)c2ccccc2Cl)CC1
middle segment

Which class does CCn1ncc2[nH]c(-c3ccc(-c4ccccn4)cc3)nc21 fall in?
lower segment

Band of Nc1ncnc2c1ncn2C1CCCC1 ?
middle segment

Band for the recorded z-score of C[C@]12CCC3c4ccc(O)cc4CCC3C1CCC2O (some centres not stated) ?
upper segment

Class? Entry: O=C1NC(C(=O)O)CS1 (configuration not stated)
upper segment

Into which category would you place O=C(O)Cc1ccc(O)c(O)c1 ?
lower segment

Could you place COc1ccc(CN2CCN(c3nccc(-c4c(C)nn(C)c4C)n3)CC2=O)cc1 in its proper category? Many thanks.
upper segment

Band for the recorded z-score of CC(=O)c1cc(CC(=O)NCc2cc(F)c(F)cc2F)cs1 ?
middle segment

Category lookup for the compound COc1ccc(-c2ncnc3sc(C)c(C)c23)c(OC)c1
upper segment

Could you tell me which band Cc1cc(C)c(CNC(C)CCC(C)C)c(C)c1CO (configuration not stated) belongs to?
upper segment

Categorize the following entry: CCn1nc(CC(C)C)cc1C(=O)N1CCC(n2cc(C(C)(C)O)nn2)CC1
lower segment

Each compound maps to one class by z-score. Which class for C[C@@H](NCCc1ccc(O)cc1)[C@@H](O)c1ccc(O)cc1 ?
upper segment

Please indicate the class for CC(C)c1ncc(C(=O)N2CCC(n3cc(-c4ccccn4)nn3)CC2)cn1 based on its z-score.
middle segment

Sort into band: COc1cccc2ccc(-c3ccc(C(=O)N(C)C)cc3)nc12
upper segment

Form field 'band' for CC(Nc1nc(N)nc2[nH]ncc12)c1ccc(Cl)cc1 (configuration not stated)
lower segment

Category of CCOC(=O)c1c(C)nn(-c2ccc(OC)cc2)c1C :
upper segment

Given C#C[C@]1(O)CCC2C3C(C)CC4=C(CCC(=O)C4)C3CC[C@@]21C (some centres not stated) , name the class its z-score places it in.
lower segment

Any idea which band Cn1cc(C(=O)N2CCc3[nH]nc(-c4ccccc4F)c3C2)c2ccccc21 is in?
lower segment

Which class is correct for the following compound? Cc1ccccc1-n1cc(-c2ccnc(NCCC3(O)CCN(C)CC3)n2)cn1
middle segment

Where would NC(=O)NCc1cn(CC2CCN(C(=O)C3CCCCCC3)CC2)nn1 land among the classes by reported z-score?
lower segment

Which class is correct for the following compound? CN(Cc1nc2ccc(Cl)cc2[nH]1)C(=O)c1n[nH]c2ccccc12
upper segment

Which class does O=C(Nc1ccncc1)c1ccc2c(c1)OCCO2 fall in?
upper segment

Class label required: Cc1ccc2c(C(=O)N(C)C(C)C)cc(-c3cnc(C(C)C)nc3)nc2c1
middle segment

Bin? O=c1c(-c2ccccc2Cl)cc2c(n1Cc1ccncc1)CCN(Cc1ccnc3ccccc13)C2
upper segment

Any idea which band CCN(c1nc(N)c(C(=O)N=C(N)N)nc1Cl)C(C)C is in?
lower segment

Category of COC(=O)c1c(NC(=O)C2CCOC2)c2cc(NC(C)CO)cnc2n1CCCc1ccccc1 (configuration not stated) :
middle segment

Band for CCN(CC)C(CNCc1ccc(OC)c(F)c1)c1ccco1 (configuration not stated) ?
lower segment

All figures here come from PubChem BioAssay.
